Source of measurements: patent US20230135524A1

assay: Pharmacokinetics in non-tumor bearing BALB/C mice, IV and PO; type: in vivo; settings: mouse, plasma, PO, 20 mg/kg
REPORTED_PROPERTY: AUC(0-t) (ng·h/mL)
State the answer as a number, implicitly in ng·h/mL.

input: Quick one: AUC(0-t) for CC1(C)C(=O)N(c2cnc(C#N)c(C(F)(F)F)c2)C(=S)N1Cc1ccc(-c2c[nH]nn2)cc1 [Compound 15n] ?
output: 97300

###

experiment: Pharmacokinetics in non-tumor bearing BALB/C mice, IV and PO; format: in vivo; settings: mouse, plasma, PO, 20 mg/kg
For each entry below, report its Tmax value.
State the answer as a number, implicitly in h.

input: Quick one: Tmax for CC1(C)C(=O)N(c2ccc(C#N)c(C(F)(F)F)c2)C(=S)N1Cc1ccc(-c2c[nH]nn2)cc1 [Compound 15a] ?
output: 2

input: Quick one: Tmax for CC1(C)C(=O)N(c2cnc(C#N)c(C(F)(F)F)c2)C(=S)N1Cc1ccc(-c2c[nH]nn2)cc1 [Compound 15n] ?
output: 1

###

experiment: Pharmacokinetics in non-tumor bearing BALB/C mice, IV and PO; assay type: in vivo; conditions: mouse, plasma, PO, 20 mg/kg
REPORTED_PROPERTY: Cmax (ng/mL)
State the answer as a number, implicitly in ng/mL.

input: Quick one: Cmax for CC1(C)C(=O)N(c2cnc(C#N)c(C(F)(F)F)c2)C(=S)N1Cc1ccc(-c2c[nH]nn2)cc1 [Compound 15n] ?
output: 11000

###

For each entry below, report its half-life value.
assay: Pharmacokinetics in non-tumor bearing BALB/C mice, IV and PO; assay type: in vivo; details: mouse, plasma, IV, 1 mg/kg
State the answer as a number, implicitly in h.

input: Quick one: half-life for CC1(C)C(=O)N(c2ccc(C#N)c(C(F)(F)F)c2)C(=S)N1Cc1ccc(-c2c[nH]nn2)cc1 [Compound 15a] ?
output: 18

input: Quick one: half-life for CC1(C)C(=O)N(c2cnc(C#N)c(C(F)(F)F)c2)C(=S)N1Cc1ccc(-c2c[nH]nn2)cc1 [Compound 15n] ?
output: 9.13

###

For each entry below, report its activity at 10 µM value.
biological target: AR (Homo sapiens, UniProt P10275); construct: host or cells: HEK 293T; experiment: AR transcriptional output, ARE-luciferase assay in HEK 293T cells; assay type: cell-based; conditions: HEK-293T, read-out: AR antagonist activity (% RLU)
Sequence (P10275 whole entry): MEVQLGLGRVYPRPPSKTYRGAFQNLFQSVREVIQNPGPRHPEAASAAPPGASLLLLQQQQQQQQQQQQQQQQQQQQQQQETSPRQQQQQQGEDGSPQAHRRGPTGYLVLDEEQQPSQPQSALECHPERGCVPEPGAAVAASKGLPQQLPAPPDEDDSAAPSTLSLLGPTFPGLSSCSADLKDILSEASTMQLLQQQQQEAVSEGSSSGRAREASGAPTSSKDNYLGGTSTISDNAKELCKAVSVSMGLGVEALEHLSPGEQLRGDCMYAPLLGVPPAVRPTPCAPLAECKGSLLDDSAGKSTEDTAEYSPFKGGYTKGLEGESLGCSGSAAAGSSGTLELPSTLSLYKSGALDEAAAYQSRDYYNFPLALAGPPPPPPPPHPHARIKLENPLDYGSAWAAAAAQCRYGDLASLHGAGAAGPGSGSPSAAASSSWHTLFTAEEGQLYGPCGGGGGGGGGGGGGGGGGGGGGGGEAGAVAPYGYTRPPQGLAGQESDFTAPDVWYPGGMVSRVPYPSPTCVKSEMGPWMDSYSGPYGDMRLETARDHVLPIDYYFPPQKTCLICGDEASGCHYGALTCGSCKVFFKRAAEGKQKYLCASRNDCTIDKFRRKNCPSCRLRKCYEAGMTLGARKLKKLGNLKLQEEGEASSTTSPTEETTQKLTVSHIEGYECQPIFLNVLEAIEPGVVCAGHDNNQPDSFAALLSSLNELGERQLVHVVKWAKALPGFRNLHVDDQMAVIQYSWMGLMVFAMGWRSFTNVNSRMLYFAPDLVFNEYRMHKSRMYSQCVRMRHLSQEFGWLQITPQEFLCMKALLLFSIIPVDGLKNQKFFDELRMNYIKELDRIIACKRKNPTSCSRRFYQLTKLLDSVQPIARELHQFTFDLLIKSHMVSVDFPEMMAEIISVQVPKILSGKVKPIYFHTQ
For clarity, give the value followed by its unit.

input: Quick one: activity at 10 µM for Cn1cc(-c2ccc(CN3C(=S)N(c4ccc(C#N)c(C(F)(F)F)c4)C(=O)C3(C)C)cc2)nn1 [Compound 15b] ?
output: -41%

input: Quick one: activity at 10 µM for CCCCn1cc(-c2ccc(CN3C(=S)N(c4ccc(C#N)c(C(F)(F)F)c4)C(=O)C3(C)C)cc2)nn1 [Compound 15e] ?
output: -3%

input: Quick one: activity at 10 µM for CC1(C)C(=O)N(c2ccc(C#N)c(C(F)(F)F)c2)C(=S)N1Cc1ccc(-c2c[nH]nn2)cc1 [Compound 15a] ?
output: -109%

input: Quick one: activity at 10 µM for "C#Cc1ccc(CN2C(=O)N(c3ccc(C#N)c(C(F)(F)F)c3)C(=O)C2(C)C)cc1" ?
output: 138%

input: Quick one: activity at 10 µM for CCn1cc(-c2ccc(CN3C(=S)N(c4ccc(C#N)c(C(F)(F)F)c4)C(=O)C3(C)C)cc2)nn1 [Compound 15c] ?
output: 3%

input: Quick one: activity at 10 µM for CC1(C)C(=O)N(c2ccc(C#N)c(C(F)(F)F)c2)C(=S)N1c1ccc(-c2c[nH]nn2)cc1 [Compound 16a] ?
output: -22%

input: Quick one: activity at 10 µM for "C#Cc1ccc(N2C(=S)N(c3ccc(C#N)c(C(F)(F)F)c3)C(=O)C2(C)C)cc1" ?
output: 59%

input: Quick one: activity at 10 µM for CC1(C)C(=O)N(c2ccc(C#N)c(C(F)(F)F)c2)C(=S)N1Cc1c[nH]nn1 [Compound 18a] ?
output: 412%

input: Quick one: activity at 10 µM for CCCn1cc(-c2ccc(CN3C(=S)N(c4ccc(C#N)c(C(F)(F)F)c4)C(=O)C3(C)C)cc2)nn1 [Compound 15d] ?
output: 4%

input: Quick one: activity at 10 µM for CC1(C)C(=O)N(c2ccc(C#N)c(C(F)(F)F)c2)C(=O)N1Cc1ccc(-n2ccnn2)cc1 [Compound 20a] ?
output: 57%

input: Quick one: activity at 10 µM for "C#Cc1ccc(CN2C(=S)N(c3ccc(C#N)c(C(F)(F)F)c3)C(=O)C2(C)C)cc1" ?
output: 95%

input: Quick one: activity at 10 µM for CC1(C)C(=O)N(c2ccc(C#N)c(C(F)(F)F)c2)C(=O)N1Cc1ccc(-n2cc(CCO)nn2)cc1 [Compound 20c] ?
output: -1%

input: Quick one: activity at 10 µM for Cn1cc(-c2ccc(CN3C(=O)N(c4ccc(C#N)c(C(F)(F)F)c4)C(=O)C3(C)C)cc2)nn1 [Compound 14b] ?
output: -3%

input: Quick one: activity at 10 µM for CC1(C)C(=O)N(c2ccc(C#N)c(C(F)(F)F)c2)C(=O)N1Cc1ccc(-n2cc(CO)nn2)cc1 [Compound 20b] ?
output: 73%

input: Quick one: activity at 10 µM for CC1(C)C(=O)N(c2ccc(C#N)c(C(F)(F)F)c2)C(=O)N1Cc1ccc(-c2c[nH]nn2)cc1 [Compound 14a] ?
output: -64%

###

biological target: UniProt P10275; assay: Radioligand competition binding, [3H] methyltrienolone; settings: competition with 0.5 nM [3H] methyltrienolone
REPORTED_PROPERTY: IC50 (nM)
State the answer as a number, implicitly in nM.

input: Return IC50 measured with UniProt P10275 given this molecule: CC1(C)C(=O)N(c2ccc(C#N)c(C(F)(F)F)c2)C(=S)N1Cc1ccc(-c2c[nH]nn2)cc1F [Compound 19d]
output: 9.3

input: Return IC50 measured with UniProt P10275 given this molecule: CC1(C)C(=O)N(c2ccc(C#N)c(C(F)(F)F)c2)C(=S)N1Cc1ccc(-c2c[nH]nn2)cc1 [Compound 15a]
output: 12.5

###

system: LNCaP ARin vivo; experiment: IncuCyte % confluence cell growth inhibition, LNCaP ARin vivo; format: cell-based; conditions: Homo sapiens, AR-positive, AR w.t., % cell growth inhibition relative to DMSO, read-out: IC50 values (μM), LNCaP ARin vivo
REPORTED_PROPERTY: IC50 (µM)
State the answer as a number, implicitly in µM.

input: Quick one: IC50 for CNC(=O)c1ccc(N2C(=S)N(c3cnc(C#N)c(C(F)(F)F)c3)C(=O)C23CCC3)cc1F [ARN509, reference compound] ?
output: 270

###

test system: LNCaP; experiment: IncuCyte % confluence cell growth inhibition, LNCaP; assay type: cell-based; conditions: Homo sapiens, AR-positive, AR mutation T877A, % cell growth inhibition relative to DMSO, read-out: IC50 values (μM), LNCaP
REPORTED_PROPERTY: IC50 (µM)
State the answer as a number, implicitly in µM.

input: Return IC50 measured with LNCaP given this compound: CC(=O)N1CCN(CCOc2ccc(C3CCN(C4=Nn5c(nnc5C(F)(F)F)CC4)CC3)cc2)CC1 [AZD3514, reference compound]
output: 76.9

input: Return IC50 measured with LNCaP given this compound: CNC(=O)c1ccc(N2C(=S)N(c3cnc(C#N)c(C(F)(F)F)c3)C(=O)C23CCC3)cc1F [ARN509, reference compound]
output: 34.5

###

molecular target: UniProt:P22199; experiment: Radioligand competition binding, [3H] aldosterone; details: competition with [3H] aldosterone, 20 hours
REPORTED_PROPERTY: IC50

input: Quick one: IC50 for CC1(C)C(=O)N(c2ccc(C#N)c(C(F)(F)F)c2)C(=S)N1Cc1ccc(-c2c[nH]nn2)cc1F [Compound 19d] ?
output: > 10000 nM

input: Quick one: IC50 for CC1(C)C(=O)N(c2ccc(C#N)c(C(F)(F)F)c2)C(=S)N1Cc1ccc(-c2c[nH]nn2)cc1 [Compound 15a] ?
output: > 10000 nM

###

test system: DU145; experiment: IncuCyte % confluence cell growth inhibition, DU145; format: cell-based; conditions: Homo sapiens, DU-145; AR-negative; % cell growth inhibition relative to DMSO; read-out: IC50 values (μM), DU145
For each entry below, report its IC50 value.
State the answer as a number, implicitly in µM.

input: Return IC50 measured with DU145 given this molecule: CNC(=O)c1ccc(N2C(=S)N(c3cnc(C#N)c(C(F)(F)F)c3)C(=O)C23CCC3)cc1F [ARN509, reference compound]
output: 61.8

input: Return IC50 measured with DU145 given this molecule: CC(=O)N1CCN(CCOc2ccc(C3CCN(C4=Nn5c(nnc5C(F)(F)F)CC4)CC3)cc2)CC1 [AZD3514, reference compound]
output: 61.2
